Endpoint: melting point

[
  {
    "Compound": "O=C(CN1CCN(c2ncccc2[N+](=O)[O-])CC1)Nc1ccccc1",
    "Endpoint": "melting point",
    "Result": "79 to 80 °C"
  },
  {
    "Compound": "COc1ccc(NC(=O)CN2CCN(c3ncccc3[N+](=O)[O-])CC2)cc1",
    "Endpoint": "melting point",
    "Result": "107 to 108 °C"
  },
  {
    "Compound": "O=C(CN1CCN(c2ncccc2[N+](=O)[O-])CC1)Nc1cccc(Cl)c1",
    "Endpoint": "melting point",
    "Result": "71 to 73 °C"
  },
  {
    "Compound": "Cc1cccc(NC(=O)CN2CCN(c3ncccc3[N+](=O)[O-])CC2)c1",
    "Endpoint": "melting point",
    "Result": "95 to 96 °C"
  },
  {
    "Compound": "CC(C(=O)Nc1cccc([N+](=O)[O-])c1)N1CCN(c2ncccc2[N+](=O)[O-])CC1 (stereo not drawn)",
    "Endpoint": "melting point",
    "Result": "120 to 121 °C"
  },
  {
    "Compound": "CC(C(=O)Nc1ccc([N+](=O)[O-])cc1)N1CCN(c2ncccc2[N+](=O)[O-])CC1 (stereo not drawn)",
    "Endpoint": "melting point",
    "Result": "159 to 161 °C"
  },
  {
    "Compound": "O=C(CN1CCN(c2ncccc2[N+](=O)[O-])CC1)Nc1ccc(Br)cc1",
    "Endpoint": "melting point",
    "Result": "115 to 116 °C"
  },
  {
    "Compound": "Cc1ccccc1NC(=O)CN1CCN(c2ncccc2[N+](=O)[O-])CC1",
    "Endpoint": "melting point",
    "Result": "105 to 106 °C"
  },
  {
    "Compound": "Cc1ccc(NC(=O)CN2CCN(c3ncccc3[N+](=O)[O-])CC2)cc1",
    "Endpoint": "melting point",
    "Result": "112 to 113 °C"
  },
  {
    "Compound": "O=C(CN1CCN(c2ncccc2[N+](=O)[O-])CC1)Nc1ccccc1Br",
    "Endpoint": "melting point",
    "Result": "109 to 110 °C"
  },
  {
    "Compound": "COc1ccccc1NC(=O)CN1CCN(c2ncccc2[N+](=O)[O-])CC1",
    "Endpoint": "melting point",
    "Result": "120 to 121 °C"
  },
  {
    "Compound": "COc1ccc(NC(=O)C(C)N2CCN(c3ncccc3[N+](=O)[O-])CC2)cc1 (stereo not drawn)",
    "Endpoint": "melting point",
    "Result": "62 to 64 °C"
  },
  {
    "Compound": "O=C(CN1CCN(c2ncccc2[N+](=O)[O-])CC1)Nc1cccc(Br)c1",
    "Endpoint": "melting point",
    "Result": "101 to 102 °C"
  },
  {
    "Compound": "O=C(CN1CCN(c2ncccc2[N+](=O)[O-])CC1)Nc1ccc([N+](=O)[O-])cc1",
    "Endpoint": "melting point",
    "Result": "145 to 146 °C"
  },
  {
    "Compound": "O=C(CN1CCN(c2ncccc2[N+](=O)[O-])CC1)Nc1cccc([N+](=O)[O-])c1",
    "Endpoint": "melting point",
    "Result": "139 to 141 °C"
  }
]

From: paper PMC10965793
